test system: STK39; details: concentration: 1 μM, replicates: in singlicate; n = 1;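 also: KINOMEscan kinase panel screen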
QUANTITY NAME: %Inh

MOLECULE | RESULT
O=C(Nc1n[nH]c2nc(-c3ccccc3O)ccc12)C1CC1 | 0%
Nc1ncnc2scc(-c3ccc(NC(=O)Cc4cc(F)ccc4F)cc3)c12.O=C(O)C(F)(F)F | 8%
Cc1ccc(NC(=O)c2ccc(Cl)c(Cl)c2)cc1-c1ccc(C(=O)Nc2ccncc2)cc1 | 0%
CCNc1nccc(-c2c(-c3ccc(F)cc3)ncn2C2CCN(C)CC2)n1 | 0%
CS(=O)(=O)c1cccc(CNc2nc(Nc3ccc4c(c3)CCC(=O)N4)ncc2C(F)(F)F)c1 | 0%

----------
Collected %Inh values appear next to each entry.
system: QSK; settings: concentration: 1 μM, replicates: in singlicate; n = 1
QUANTITY NAME: %Inh (%)

MOLECULE | QUANTITY NAME | NUMERIC READOUT
CCOc1nccc(-c2c(-c3ccc(F)cc3)ncn2C2CCNCC2)n1 | %Inh | 20
O=C(Nc1n[nH]c2nc(-c3cccc(O)c3)ccc12)C1CC1 | %Inh | 18
Nc1ncc(-c2ccc3nccc(-c4ccncc4)c3c2)cc1S(=O)(=O)N1CCCCC1 | %Inh | 1
Cc1ccc(NC(=O)c2ccnc(N3CCCCC3)c2)cc1-c1ccc(C(=O)NCC2CC2)cc1 | %Inh | 0
Fc1cc(Cl)ccc1Nc1ccnc2cc(-c3ccc(CN4CCOCC4)o3)ccc12 | %Inh | 70
Cl.Cl.NCC(NC(=O)c1cc(-c2cccnc2)c(-c2ccnc3[nH]ccc23)s1)c1ccccc1 (stereo not drawn) | %Inh | 13
O=C(Nc1n[nH]c2cc(-c3cccs3)ccc12)C1CC1 | %Inh | 44
Cc1ccc(Nc2ccnc(Nc3ccc(C)c(F)c3)n2)cc1O.Cl | %Inh | 0
CSc1ccc(NC2=C(c3ccc(Cl)cc3)C(=O)NC2=O)cc1 | %Inh | 0
Cc1ccc(O)cc1Nc1ccnc2cc(-c3ccc(CN4CCCCC4)o3)ccc12 | %Inh | 41
Cc1ccc(NC(=O)c2ccc(Cl)c(Cl)c2)cc1-c1ccc(C(=O)Nc2ccncc2)cc1 | %Inh | 0
O=C(Nc1n[nH]c2nc(-c3ccccc3O)ccc12)C1CC1 | %Inh | 33
COc1cccc(NC(=O)NCCNc2ccnc(Nc3ccc(F)cc3)n2)c1 | %Inh | 0
O=C1NC(=O)C(c2ccccc2Cl)=C1Nc1cccc(Cl)c1 | %Inh | 5
COc1cc(Nc2nccc(N3CCC(NS(=O)(=O)c4ccc(NC(C)=O)cc4)CC3)n2)cc(OC)c1OC | %Inh | 20
COC(=O)Nc1nc2ccc(Oc3ccc(NC(=O)Nc4cc(C(F)(F)F)ccc4F)cc3)cc2[nH]1.Cl | %Inh | 28
COc1cc(Nc2nccc(N3CCC(NC(=O)Nc4ccc5c(c4)OCO5)C3)n2)cc(OC)c1OC (stereo not drawn) | %Inh | 3
Cc1ccc(O)cc1Nc1ccnc2ccc(C(C)(C)C)cc12 | %Inh | 22

----------
system: EPHA5; settings: concentration: 1 μM, replicates: in singlicate; n = 1
%Inh of 4% or higher: fulfilled. Under 4%: not fulfilled.

MOLECULE | SYSTEM UNDER TEST | ASSIGNED CATEGORY
O=C(O)C(F)(F)F.O=c1[nH]ccc2nc(N[C@@H]3CCNC3)nc(Nc3cc(Cl)cc(Cl)c3)c12 | EPHA5 | not fulfilled
COC(=O)Nc1nc2cc(Oc3ccc(NC(=O)Nc4cccc(SC)c4)cc3)ccc2[nH]1.Cl | EPHA5 | fulfilled
COc1cccc(-c2nc(-c3ccccc3)[nH]c2-c2ccncc2)c1 | EPHA5 | not fulfilled
CCNC(=O)/C=C/c1n[nH]c2cc(Sc3ccccc3C(=O)NC)ccc12 | EPHA5 | fulfilled
Cc1ccc(O)cc1Nc1ccnc2cc(-c3ccc(CN4CCCCC4)o3)ccc12 | EPHA5 | fulfilled
Cc1nn2c(=O)cc(N3CCO[C@H](C)C3)nc2n1Cc1cccc(Cl)c1Cl | EPHA5 | not fulfilled
CS(=O)(=O)c1cccc(CNc2nc(Nc3ccc4c(c3)CCC(=O)N4)ncc2C(F)(F)F)c1 | EPHA5 | not fulfilled
CN(c1ccc(NC(=O)Nc2cccc(Cl)c2)cc1)c1ccnc(N)n1.Cl | EPHA5 | fulfilled
O=C(Nc1n[nH]c2nc(-c3cccc(O)c3)ccc12)C1CC1 | EPHA5 | not fulfilled
Fc1cc(Cl)ccc1Nc1ccnc2cc(-c3ccc(CN4CCSCC4)o3)ccc12 | EPHA5 | not fulfilled
Cl.O=C(Nc1ccc(Oc2ccc3[nH]c(NC(=O)c4ccco4)nc3c2)cc1)Nc1cc(C(F)(F)F)ccc1F | EPHA5 | fulfilled
CCOc1nccc(-c2c(-c3ccc(F)cc3)ncn2C2CCNCC2)n1 | EPHA5 | not fulfilled
Cn1cc(-c2ccc3c(c2)CCN3C(=O)Cc2cc(F)cc(F)c2F)c2c(N)ncnc21 | EPHA5 | not fulfilled
CN1CCN(Cc2ccc(NC(=O)Nc3ccc(N(C)c4ccnc(Nc5ccc(CS(C)(=O)=O)cc5)n4)cc3)cc2)CC1.Cl | EPHA5 | fulfilled
COc1cc(Nc2nccc(N3CCC(NC(=O)Nc4ccc5c(c4)OCO5)C3)n2)cc(OC)c1OC (centres unmarked) | EPHA5 | not fulfilled
Cl.Cl.NCC(NC(=O)c1cc(-c2cccnc2)c(-c2ccnc3[nH]ccc23)s1)c1ccccc1 (centres unmarked) | EPHA5 | not fulfilled
